The origin of these recorded values is PubChem BioAssay (NCATS).

target: Rap guanine nucleotide exchange factor 3 (Homo sapiens); assay: Counterscreen qHTS for antagonist of cAMP-regulated guanine nucleotide exchange factor 3 (EPAC1) (AID 1645888); settings: Rap1B-BODIPY-GDP nucleotide exchange, fluorescence; series mostly up to 154 µM;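 further: fluorescence loss as bound BODIPY-GDP is released from Rap1B; % of control where 0% means no effect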
Records with an inconclusive call do not appear. The source made the active and inactive calls. The call rests on the fitted dose curve; in most records, active means well fitted inhibition curve with a large enough effect; inconclusive means small, poorly fitted or top-dose-only effect; inactive means no such curve, though single readings can be large or run the other way.
parameter: activity change, negative = inhibition

# compound, activity change, negative = inhibition
data = [
    ("Cc1cc(C)c(C)c(S(=O)(=O)N2CCCCC2C(=O)O)c1C (stereo unspecified)", "8.45% [at 30.8 µM] (inactive)"),
    ("COc1ccc(C(C#N)N2CCC(c3ccccc3)=N2)cc1OC (stereo unspecified)", "inactive"),
    ("C=CS(=O)(=O)N(Cc1ccccc1Br)[C@H](CO)CC(C)C", "-13.6% [at 30.8 µM] (inactive)"),
    ("Cc1cccc(C(C)C)c1-n1nnnc1-c1ccccc1", "-11.8% [at 30.8 µM] (inactive)"),
    ("CN(C)c1cc(Cl)c2nonc2c1N", "inactive"),
]

q: Give the reported activity change, negative = inhibition for COC(=O)c1c(-c2ccc(OC)cc2)sc2ccc(OC)cc12 (system: Rap guanine nucleotide exchange factor 3 (Homo sapiens)).
a: inactive
